We begin with a simple list: items and their reported ΔTm.
measurement-description: Binding affinity to AT-rich 5'-fluoro and 3'-TAMRA tagged 5'-TAT-ATA-TAG-ATA-TTT-TTT-TAT-CTA-TAT-ATA-3' hairpin DNA (unknown origin) assessed as thermal stabilization by measuring change in melting temperature at 1 uM incubated for 3 hrs by FRET analysis
outcome-measure: ΔTm (°C)

# molecule, outcome-measure, scale-unit, experimental-value
data = [
    ("COC(=O)c1cc2cc(NC(=O)c3cc(NC(=O)CCCOc4cc5c(cc4OC)C(=O)N4CCC[C@H]4C=N5)cn3C)ccc2s1", "ΔTm", "°C", 14),
    ("COC(=O)c1cc(NC(=O)c2cc(NC(=O)CCCOc3cc4c(cc3OC)C(=O)N3CCC[C@H]3C=N4)cn2C)cn1C", "ΔTm", "°C", 18.9),
    ("COC(=O)c1cc(-c2ccc(NC(=O)c3cc(NC(=O)CCCOc4cc5c(cc4OC)C(=O)N4CCC[C@H]4C=N5)cn3C)cc2)cn1C", "ΔTm", "°C", 15.7),
    ("CO[C@@]12[C@H](COC(N)=O)C3=C(C(=O)C(C)=C(N)C3=O)N1C[C@@H]1N[C@@H]12", "ΔTm", "°C", 12.6),
]
